Target: CDK2/CycA2 (Homo sapiens)
Assay: CDK2 mobility shift assay (enzymatic activity of CDK2/CycA2)
Type: biochemical
Details: 1.25 nM CDK2/CycA2, 37 μM ATP, FL Peptide 18, 120 min at room temperature; read-out: CDK2 IC50
Reported IC50 values are given for each entry in this list.

Briefly, IC50 measured for COC(=O)c1ccn(-c2ccc(Nc3cc4nc(C(O)C5CCN(C)CC5)ccc4cn3)c(F)c2)n1 (stereo not drawn) [Compound 344] : > 1000 nM

Value of measured IC50 for the entry `CNC(=O)c1ccc(Nc2cc3nc(S(=O)(=O)C4CCN(C)CC4)ccc3cn2)cc1` : 100 to 1000 nM

Value of IC50 reported for the compound CN1CCC(C(O)(c2ccc3cnc(Nc4ccc(-n5cccn5)cc4F)cc3n2)C(F)(F)F)CC1 (single isomer, unassigned) [Compound 349] is 10 to 100 nM

The compound identified as `CN1CCC(S(=O)(=O)c2ccc3cnc(Nc4cccc(N5CCN(C)CC5)c4)cc3n2)CC1` registered its IC50 at 100 to 1000 nM

Value of IC50 reported for the compound `CN1CCC(S(=O)(=O)c2ccc3cnc(Nc4ccc(-c5ccc(F)cc5)cc4F)cc3n2)CC1` is > 1000 nM

The compound listed as `COc1cccc(-c2ccc(Nc3cc4nc(S(=O)(=O)C5CCN(CC6COC6)CC5)ccc4cn3)c(F)c2)n1` shows IC50 equal to 100 to 1000 nM

Next:
// IC50 value for OC(c1ccc2cnc(Nc3ccc(-n4cccn4)cc3F)cc2n1)C1(O)CCNCC1 (stereo not drawn) : > 1000 nM

// field: IC50; key: `CN1CCC(Sc2ccc3cnc(Nc4ccc(-n5ccc(CO)n5)cc4F)cc3n2)CC1` ; value = 10 to 100 nM

* * *

Biological target: CDK2/CycA2 (Homo sapiens)
Assay: CDK2 mobility shift assay (enzymatic activity of CDK2/CycA2)
Assay type: biochemical
Conditions: 1.25 nM CDK2/CycA2, 37 μM ATP, FL Peptide 18, 120 min at room temperature; read-out: CDK2 IC50
pIC50: −log10 of the molar value.
Catalogue of pIC50 values

Guide cases for pIC50, answers given:
So, CN1CCC(S(=O)(=O)c2ccc3cnc(Nc4ccc5c(c4)C(=O)N(C)C5)cc3n2)CC1 [Compound 275] ? Its pIC50 was 6.00 to 7.00

# pIC50 of CN1CCC(S(=O)(=O)c2ccc3cnc(Nc4ccc(N5CCS(=O)(=O)CC5)cc4)cc3n2)CC1 [Compound 296] = 7.00 to 8.00

In plain terms, CN1CCC(O)(C(O)c2ccc3cnc(Nc4ccc(-n5cccn5)cc4F)cc3n2)CC1 (stereo not shown) [Compound 240] has a documented pIC50 of < 6.00

Next:
Note to self: pIC50 recorded for CN1CCC([C@@](C)(O)c2ccc3cnc(Nc4ccc(-c5cccc(C(N)=O)c5)cc4F)cc3n2)CC1 [Compound 364] was 7.00 to 8.00

For CN1CCC(C2(c3ccc4cnc(Nc5ccc(-n6ccc(CO)n6)cc5F)cc4n3)CC2)CC1 [Compound 312] the molecule record lists pIC50 as < 6.00

The molecule identified as CN1CCC(N(Cc2cn[nH]c2)c2ccc3cnc(Nc4ccc(-n5ccc(CO)n5)cc4F)cc3n2)CC1 [Compound 309] registered its pIC50 at < 6.00

Sample CN1CCC(C(C)(O)c2ccc3cnc(Nc4ccc(-c5cccnc5)cc4F)cc3n2)CC1 (stereo not shown) [Compound 327] ; pIC50 observed: < 6.00

* * *

A collection of compounds and their measured IC50
Target: CDK5/p25 (Homo sapiens, UniProt Q00535)
Sequence (Q00535 whole entry): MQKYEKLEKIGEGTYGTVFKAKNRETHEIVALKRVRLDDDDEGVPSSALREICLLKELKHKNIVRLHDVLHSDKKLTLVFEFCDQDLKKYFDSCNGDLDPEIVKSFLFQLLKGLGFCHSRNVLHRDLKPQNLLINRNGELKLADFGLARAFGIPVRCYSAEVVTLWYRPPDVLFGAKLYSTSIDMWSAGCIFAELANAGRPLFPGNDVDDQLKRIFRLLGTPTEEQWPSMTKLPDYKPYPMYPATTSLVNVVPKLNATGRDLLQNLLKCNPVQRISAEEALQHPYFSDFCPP
Sequence (Q15078 99-307 partner limits assumed): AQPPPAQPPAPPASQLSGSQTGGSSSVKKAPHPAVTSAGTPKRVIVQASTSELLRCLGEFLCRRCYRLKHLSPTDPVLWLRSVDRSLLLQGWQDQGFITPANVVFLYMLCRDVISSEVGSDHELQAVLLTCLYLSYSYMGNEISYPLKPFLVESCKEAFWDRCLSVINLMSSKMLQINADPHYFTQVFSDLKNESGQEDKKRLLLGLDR
Experiment: CDK5 mobility shift assay (enzymatic activity of CDK5/p25)
Format: biochemical
Settings: 0.154 nM CDK5/p25, FL peptide 29, 60 min at room temperature; read-out: CDK5 IC50

These recorded examples may help you get a feel for the data.
// IC50 lookup, compound = CN1CCC(/C(=N/O)c2ccc3cnc(Nc4ccc(-n5cccn5)cc4F)cc3n2)CC1 [Compound 381] , result: 10 to 100 nM

For NC1CCCN(C(=O)c2ccc3cnc(Nc4ccc(-n5cccn5)cc4F)cc3n2)C1 (stereo not shown) [Compound 242] the compound record lists IC50 as 100 to 1000 nM

IC50 in this record for CN1CCC(S(=O)(=O)c2ccc3cnc(Nc4ccc(N5CCOC5=O)cc4)cc3n2)CC1 [Compound 307] : < 10 nM

New cases:
Kindly note the recorded IC50 for CN1CCC(C(C)(O)c2ccc3cnc(Nc4cccc(N5CCOCC5)c4)cc3n2)CC1 (stereo not shown) [Compound 348] , which is < 10 nM

Lab note: measured IC50 of N[C@H]1CC[C@@H](Sc2ccc3cnc(Nc4ccc(-n5cccn5)cc4F)cc3n2)CC1 [Compound 121] was < 10 nM

Record CN1CCC(S(=O)(=O)c2ccc3cnc(Nc4ccc5c(c4)COC5)cc3n2)CC1 [Compound 282] , field IC50: < 10 nM

GET /value?item= CN1CCC(C(C)(F)c2ccc3cnc(Nc4ccc(-n5cccn5)cc4F)cc3n2)CC1 (single isomer, unassigned) [Compound 359] &field=IC50 returns < 10 nM

OCc1ccn(-c2ccc(Nc3cc4nc(NC5CCNCC5)ccc4cn3)c(F)c2)n1 [Compound 102] yielded IC50 of < 10 nM

// IC50 lookup, compound = CC1CCN(c2ccc(Nc3cc4nc(S(=O)(=O)C5CCN(C)CC5)ccc4cn3)cc2)CC1 [Compound 308] , result: < 10 nM

In plain terms, Cc1cc(C)cc(Nc2cc3nc(S(=O)(=O)C4CCN(C)CC4)ccc3cn2)c1 [Compound 260] has a documented IC50 of < 10 nM

response.value for CN1CCC(S(=O)(=O)c2ccc3cnc(Nc4ccc(N5CCS(=O)(=O)CC5)cc4)cc3n2)CC1 [Compound 296] (field: IC50) = < 10 nM

Looking up COc1ccc(-c2ccc(Nc3cc4nc(C(C)C5CCN(C)CC5)ccc4cn3)c(F)c2)cc1 (stereo not shown) [Compound 310] , I found its IC50 recorded as 10 to 100 nM

Given item CN1CCC(S(=O)(=O)c2ccc3cnc(Nc4ccc(Cn5cncn5)cc4)cc3n2)CC1 [Compound 263] , the value recorded as its IC50 is < 10 nM

* * *

Target: CDK2/CycA2 (Homo sapiens)
Assay: CDK2 mobility shift assay (enzymatic activity of CDK2/CycA2)
Format: biochemical
Settings: 1.25 nM CDK2/CycA2, 37 μM ATP, FL Peptide 18, 120 min at room temperature; read-out: CDK2 IC50
OBSERVED PROPERTY: IC50

Solved entries (count: 5):
So, `O=S(=O)(c1ccc2cnc(Nc3ccc(-n4ccc(CO)n4)cc3F)cc2n1)N1CCNCC1` ? Its IC50 was 100 to 1000 nM

// IC50 lookup, molecule = CCc1cccc(Nc2cc3nc(C(C)(O)C4CCN(C)CC4)ccc3cn2)c1 (stereo not drawn) , result: 10 to 100 nM

Sure, the documented IC50 for `O=C(O)CN(c1ccc2cnc(Nc3ccc(-n4ccc(CO)n4)cc3F)cc2n1)[C@H]1CC[C@H](O)CC1` is > 1000 nM

For this molecule ( `Cc1cc(C)cc(Nc2cc3nc(S(=O)(=O)C4CCN(C)CC4)ccc3cn2)c1` ), measured IC50 is 100 to 1000 nM

In plain terms, `CN1CCC(S(=O)(=O)c2ccc3cnc(Nc4ccc(N5CCN(C)CC5)cc4)cc3n2)CC1` has a documented IC50 of 100 to 1000 nM

Further cases:
For reference, reported IC50 for `CN1CCC(S(=O)(=O)c2ccc3cnc(Nc4ccc(Cn5cncn5)cc4)cc3n2)CC1` stands at 10 to 100 nM

So for CN1CCC(C(C)(O)c2ccc3cnc(Nc4ccc(-c5ccc(C#N)cc5)cc4F)cc3n2)CC1 (stereo not drawn) , the logged IC50 turned out to be 10 to 100 nM

Lab note: measured IC50 of `CN(C)Cc1cccc(Nc2cc3nc(S(=O)(=O)C4CCN(C)CC4)ccc3cn2)c1` was 100 to 1000 nM

So for `CN1CCC(S(=O)(=O)c2ccc3cnc(Nc4cnc5ccc(Cl)nn45)cc3n2)CC1` , the logged IC50 turned out to be > 1000 nM

* * *

Biological target: CDK2/CycA2 (Homo sapiens)
Experiment: CDK2 mobility shift assay (enzymatic activity of CDK2/CycA2)
Assay type: biochemical
Conditions: 1.25 nM CDK2/CycA2, 37 μM ATP, FL Peptide 18, 120 min at room temperature; read-out: CDK2 IC50
OBSERVED PROPERTY: IC50

Here's what some known entries look like.
In plain terms, `COc1cncc(Nc2cc3nc(S(=O)(=O)C4CCN(C)CC4)ccc3cn2)c1` has a documented IC50 of 100 to 1000 nM

In plain terms, CN1CCC(C(C)(O)c2ccc3cnc(Nc4ccc(-c5cccc(=O)[nH]5)cc4F)cc3n2)CC1 (stereo not shown) has a documented IC50 of 10 to 100 nM

Just so you know, measured IC50 for `CN1CCC(S(=O)(=O)c2ccc3cnc(Nc4ccc(-n5cncn5)cc4)cc3n2)CC1` came out at 100 to 1000 nM

Consider `[O-][S@+](c1ccc2cnc(Nc3ccc(-n4cccn4)cc3F)cc2n1)C1CCNCC1` . Its measured IC50 is > 1000 nM

Documented IC50 of `CCN1CCC(S(=O)(=O)c2ccc3cnc(Nc4ccc(-n5cccn5)cc4F)cc3n2)CC1` : 100 to 1000 nM

IC50 in this record for `O=C(O)[C@@H]1CNCC[C@H]1Nc1ccc2cnc(Nc3ccc(-n4ccc(CO)n4)cc3F)cc2n1` : > 1000 nM

***
For record CN1CCC(C(C)(O)c2ccc3cnc(Nc4ccc(-n5cccn5)cc4F)cc3n2)CC1 (single isomer, unassigned) [Compound 216] the listed IC50 is 10 to 100 nM
